# EXPERIMENT SUMMARY: physchem
# RUN CONDITIONS: aqueous
// solubility thermodynamic lookup, one value per entry
MEASURED ATTRIBUTE: solubility thermodynamic (µg/mL)

compound="CNS(=N)(=O)c1ccc(C(F)(F)F)cc1 (stereo not given)" unit_name=µg/mL reading=6900
compound="C[S+]([O-])Cc1ccc(C(F)(F)F)cc1 (stereo not given)" unit_name=µg/mL reading=4300
compound=CC(C)(C)OC(=O)c1ccc(C(F)(F)F)cc1 unit_name=µg/mL reading=20
compound=CS(=O)(=O)Cc1ccc(C(F)(F)F)cc1 unit_name=µg/mL reading=400
compound="CN=S(=O)(NC)c1ccc(C(F)(F)F)cc1 (stereo not given)" unit_name=µg/mL reading=1200
